- Test system: mice
- assay.explanation: SmartCube in vivo neuropharmacological behavioral assay
- condition.notes: SmartCube, i.p. 15 min before test, result at the MED
Counter-ions that a name gives are not always drawn.
assay.metric: AD: antidepressant (percent probability)

Solved entries:
# compound, assay.metric, result
records = [
    ("CC(C)N1C2CCCC1c1ccccc12 [Compound 2]", "AD: antidepressant (percent probability)", "++ (5% ≤ X < 25%)"),
    ("CC[C@@H](C)N1C2CCCC1c1ccccc12 [Compound 25, hydrochloride]", "AD: antidepressant (percent probability)", "++++ (50% ≤ X < 100%)"),
    ("CCC(C)N1C2CC(C)CC1c1ccccc12 (stereo not shown) [Compound 37, hydrochloride]", "AD: antidepressant (percent probability)", "++ (5% ≤ X < 25%)"),
    ("CC[C@H](C)N1C2CCCC1c1ccccc12 [Compound 26, hydrochloride]", "AD: antidepressant (percent probability)", "++++ (50% ≤ X < 100%)"),
    ("c1ccc(CCN2C3CCCC2c2ccccc23)cc1 [Compound 5]", "AD: antidepressant (percent probability)", "++ (5% ≤ X < 25%)"),
    ("FCC(CF)N1C2CCCC1c1ccccc12 [Compound 14, hydrochloride]", "AD: antidepressant (percent probability)", "++ (5% ≤ X < 25%)"),
    ("CC(C)N1C2CCC(=O)C1c1ccccc12 (stereo not shown) [Compound 39, hydrochloride]", "AD: antidepressant (percent probability)", "+ (LOQ ≤ X < 5%)"),
    ("CC(C)N1C2CC[C@H](C)C1c1ccccc12 (stereo in doubt) [Compound 33, hydrochloride]", "AD: antidepressant (percent probability)", "++++ (50% ≤ X < 100%)"),
    ("CCCN1C2CCCC1c1ccccc12 [Compound 7, hydrochloride]", "AD: antidepressant (percent probability)", "++ (5% ≤ X < 25%)"),
    ("CC(C)N1C2CCC(F)C1c1ccccc12 (stereo not shown) [Compound 35, hydrochloride]", "AD: antidepressant (percent probability)", "+ (LOQ ≤ X < 5%)"),
]

Per the record, CC([C@H](C)F)N1C2CCCC1c1ccccc12 (stereo in doubt) [Compound 24, hydrochloride] has AD: antidepressant (percent probability) of +++ (25% ≤ X < 50%)

Per the record, CC(C)C(C)N1C2CCCC1c1ccccc12 (stereo not shown) [Compound 22, hydrochloride] has AD: antidepressant (percent probability) of ++ (5% ≤ X < 25%)

----------
- Tested on: mice
- assay.explanation: SmartCube in vivo neuropharmacological behavioral assay
- condition.notes: SmartCube, i.p. 15 min before test, result at the MED
Structures can show the parent of a compound that is named as a salt.
assay.metric: AD: antidepressant (percent probability)

# compound, assay.metric, result
rows = [
    ("COCC(C)N1C2CCCC1c1ccccc12 (stereo not shown) [Compound 18]", "AD: antidepressant (percent probability)", "++++ (50% ≤ X < 100%)"),
    ("CCN1C2CCCC1c1ccccc12 [Compound 6, hydrochloride]", "AD: antidepressant (percent probability)", "+++ (25% ≤ X < 50%)"),
    ("CCC(CC)N1C2CCCC1c1ccccc12 [Compound 17]", "AD: antidepressant (percent probability)", "++ (5% ≤ X < 25%)"),
    ("CCC(C)N1C2CCCC1c1ccccc12 (stereo not shown) [Compound 12]", "AD: antidepressant (percent probability)", "++ (5% ≤ X < 25%)"),
    ("CC(C)CN1C2CCCC1c1ccccc12 [Compound 8]", "AD: antidepressant (percent probability)", "++++ (50% ≤ X < 100%)"),
]

Per the record, CC([C@@H](C)F)N1C2CCCC1c1ccccc12 (stereo in doubt) [Compound 23, hydrochloride] has AD: antidepressant (percent probability) of + (LOQ ≤ X < 5%)

Per the record, FC1CCC2NC1c1ccccc12 (stereo not shown) [Compound 30, hydrochloride] has AD: antidepressant (percent probability) of + (LOQ ≤ X < 5%)

Per the record, c1ccc2c(c1)C1CCCC2N1C1CCCC1 [Compound 4, hydrochloride] has AD: antidepressant (percent probability) of +++ (25% ≤ X < 50%)

Per the record, CC(CF)N1C2CCCC1c1ccccc12 (stereo not shown) [Compound 19, hydrochloride] has AD: antidepressant (percent probability) of ++ (5% ≤ X < 25%)

Per the record, CO[C@@H]1CC[C@H]2c3ccccc3[C@@H]1N2C(C)C (stereo in doubt) [Compound 34, hydrochloride] has AD: antidepressant (percent probability) of ++ (5% ≤ X < 25%)

Per the record, c1ccc2c(c1)C1CCCC2N1C1CCC1 [Compound 10, hydrochloride] has AD: antidepressant (percent probability) of ++++ (50% ≤ X < 100%)

Per the record, CC(C)N1C2CCC(O)C1c1ccccc12 (stereo not shown) [Compound 27, hydrochloride] has AD: antidepressant (percent probability) of +++ (25% ≤ X < 50%)

Per the record, c1ccc2c(c1)C1CCCC2N1C1CCCCC1 [Compound 13, hydrochloride] has AD: antidepressant (percent probability) of +++ (25% ≤ X < 50%)

----------
- Test system: mice
- assay.explanation: SmartCube in vivo neuropharmacological behavioral assay
- condition.notes: SmartCube, i.p. 15 min before test, result at the MED
Counter-ions that a name gives are not always drawn.
assay.metric: AX: anxiolytic (percent probability)

Solved entries:
# compound, result
records = [
    ("c1ccc2c(c1)C1CCCC2N1C1CCC1 [Compound 10, hydrochloride]", "++ (5% ≤ X < 25%)"),
    ("CC(C)N1C2CCCC1c1cc(F)c(F)cc12", "++ (5% ≤ X < 25%)"),
    ("CC([C@@H](C)F)N1C2CCCC1c1ccccc12 (stereo in doubt) [Compound 23, hydrochloride]", "+ (LOQ ≤ X < 5%)"),
    ("CC(C)N1C2CCC(O)C1c1ccccc12 (stereo not shown) [Compound 27, hydrochloride]", "++ (5% ≤ X < 25%)"),
    ("CC[C@H](C)N1C2CCCC1c1ccccc12 [Compound 26, hydrochloride]", "+ (LOQ ≤ X < 5%)"),
]

// next entry
Per the record, `CC(C)CN1C2CCCC1c1ccccc12` has AX: anxiolytic (percent probability) of ++ (5% ≤ X < 25%)

----------
- System: mice
- assay.explanation: SmartCube in vivo neuropharmacological behavioral assay
- condition.notes: SmartCube, i.p. 15 min before test, result at the MED
- Protocol: The compounds were evaluated for their CNS related properties (e.g., the treatment, prevention or diagnosis of CNS or CNS-related disorders and/or amelioration of symptoms) using neuropharmacological screening methods described in S. L. Roberts et al., Front. Neurosci. 2011, 5:103 (hereinafter referred to as “Roberts,” the contents of which are incorporated herein by reference in their entirety). […] According to the present disclosure, compounds identified may be evaluated using the SmartCube® system. […]
Structures can show the parent of a compound that is named as a salt.
assay.metric: UN: uncharacterized CNS activity (percent probability)

Solved entries:
# compound, result
records = [
    ("c1ccc2c(c1)CC(N1C3CCCC1c1ccccc13)C2 [Compound 11, hydrochloride]", "+++ (25% ≤ X < 50%)"),
    ("c1ccc2c(c1)C1CCCC2N1C1CCOC1 (centres unmarked) [Compound 9, hydrochloride]", "++ (5% ≤ X < 25%)"),
    ("c1ccc(CCN2C3CCCC2c2ccccc23)cc1", "+++ (25% ≤ X < 50%)"),
    ("c1ccc2c(c1)C1CCCC2N1C1CCC1 [Compound 10, hydrochloride]", "+ (LOQ ≤ X < 5%)"),
    ("CC1CC2c3ccccc3C(C1)N2C1CC1 (centres unmarked) [Compound 38, hydrochloride]", "+ (LOQ ≤ X < 5%)"),
    ("CCCC(C)N1C2CCCC1c1ccccc12 (centres unmarked) [Compound 16, hydrochloride]", "++ (5% ≤ X < 25%)"),
]

// next entry
Per the record, `CC(C)N1C2CCCC1c1ccccc12` has UN: uncharacterized CNS activity (percent probability) of +++ (25% ≤ X < 50%)

----------
- Test system: mice
- assay.explanation: SmartCube in vivo neuropharmacological behavioral assay
- condition.notes: Mus musculus, ip, 0.25 h; dose having 50% or more total activity in SmartCube, i.p.; read-out: MED (minimal effective dose)
Where a name gives a salt, the structure may show the parent alone.
Quick reference: minimal effective dose of the listed items.

# molecule, minimal effective dose
data = [
    ("C[C@H]1CC[C@@H]2N[C@H]1c1ccccc12 (stereo in doubt) [Compound 32, hydrochloride]", "10 to 30 mg/kg"),
]

// next entry
Per the record, COCC(C)N1C2CCCC1c1ccccc12 (stereo not drawn) [Compound 18] has minimal effective dose of 10 to 30 mg/kg

----------
- Test system: mice
- assay.explanation: SmartCube in vivo neuropharmacological behavioral assay
- condition.notes: SmartCube, i.p. 15 min before test, result at the MED
Counter-ions that a name gives are not always drawn.
assay.metric: PS (percent probability)

Solved entries:
# compound, target.or.test.system, assay.metric, result
measured = [
    ("CC([C@@H](C)F)N1C2CCCC1c1ccccc12 (stereo in doubt) [Compound 23, hydrochloride]", "mice", "PS (percent probability)", "+ (LOQ ≤ X < 5%)"),
    ("CC[C@H](C)N1C2CCCC1c1ccccc12 [Compound 26, hydrochloride]", "mice", "PS (percent probability)", "++ (5% ≤ X < 25%)"),
    ("CC1CC2c3ccccc3C(C1)N2C1CCC1 (stereo not shown) [Compound 36, hydrochloride]", "mice", "PS (percent probability)", "+ (LOQ ≤ X < 5%)"),
    ("c1ccc2c(c1)C1CCCC2N1C1CCCCC1 [Compound 13, hydrochloride]", "mice", "PS (percent probability)", "++ (5% ≤ X < 25%)"),
    ("COCC(C)N1C2CCCC1c1ccccc12 (stereo not shown)", "mice", "PS (percent probability)", "+ (LOQ ≤ X < 5%)"),
    ("CC1CC2NC(C1)c1ccccc12 (stereo not shown) [Compound 29, hydrochloride]", "mice", "PS (percent probability)", "+ (LOQ ≤ X < 5%)"),
    ("FC1CCC2NC1c1ccccc12 (stereo not shown) [Compound 30, hydrochloride]", "mice", "PS (percent probability)", "+ (LOQ ≤ X < 5%)"),
    ("CCC(C)N1C2CC(C)CC1c1ccccc12 (stereo not shown) [Compound 37, hydrochloride]", "mice", "PS (percent probability)", "++ (5% ≤ X < 25%)"),
    ("c1ccc2c(c1)CC(N1C3CCCC1c1ccccc13)C2 [Compound 11, hydrochloride]", "mice", "PS (percent probability)", "+ (LOQ ≤ X < 5%)"),
    ("c1ccc2c(c1)C1CCCC2N1C1CCCC1 [Compound 4, hydrochloride]", "mice", "PS (percent probability)", "++ (5% ≤ X < 25%)"),
]

Per the record, CC(C)N1C2CCC(O)C1c1ccccc12 (stereo not shown) [Compound 27, hydrochloride] has PS (percent probability) of ++ (5% ≤ X < 25%)
